These entries and their values trace back to paper PMC10560236.

experimental_target: PKC activity in glomerular lysates from ZSF1 obese rats
assay_remarks: Radioactive pan-PKC kinase assay with glomerular lysates
measurement_setup: glomerular lysates from 20-week old ZSF1 obese rats, pan-PKC pseudo-substrate peptide
value_type: IC50 (nM)
Answers are plain numbers, in nM.

Look up IC50: "Cc1ncc(F)c(Nc2n[nH]c3c2CN(C(=O)N2C[C@@H](C)N(CC4CCOCC4)C[C@@H]2C)C3(C)C)n1"
70

* * *

experimental_target: PKCα (Homo sapiens, UniProt P17252)
assay_remarks: Z'-Lyte recombinant enzyme assay, PKCα
value_type: IC50 (nM)
Answers are plain numbers, in nM.

Look up IC50: Cc1ncc(F)c(Nc2n[nH]c3c2CN(C(=O)N2C[C@@H](C)N(CC4CCOCC4)C[C@@H]2C)C3(C)C)n1 [Cmpd 1]
2

* * *

experimental_target: PKCγ (Homo sapiens)
assay_remarks: Z'-Lyte recombinant enzyme assay, PKCγ
Type: biochemical
Description: Half maximal inhibitory concentrations of Cmpd 1 were determined by Z’-Lyte biochemical assays (Life Technologies SelectScreen™ Kinase Profiling Services, Thermo Fisher Scientific). Kinome selectivity was determined at 1 μM Cmpd 1 concentration against a panel of 119 kinases. The original kinome tree in Fig. 1b was taken from Ref.[68].
value_type: pIC50
Give bare numbers, as −log10 of the molar value.

Look up pIC50: "Cc1ncc(F)c(Nc2n[nH]c3c2CN(C(=O)N2C[C@@H](C)N(CC4CCOCC4)C[C@@H]2C)C3(C)C)n1"
7.02

* * *

experimental_target: PKCδ (Homo sapiens, UniProt Q05655)
Sequence (Q05655 whole entry): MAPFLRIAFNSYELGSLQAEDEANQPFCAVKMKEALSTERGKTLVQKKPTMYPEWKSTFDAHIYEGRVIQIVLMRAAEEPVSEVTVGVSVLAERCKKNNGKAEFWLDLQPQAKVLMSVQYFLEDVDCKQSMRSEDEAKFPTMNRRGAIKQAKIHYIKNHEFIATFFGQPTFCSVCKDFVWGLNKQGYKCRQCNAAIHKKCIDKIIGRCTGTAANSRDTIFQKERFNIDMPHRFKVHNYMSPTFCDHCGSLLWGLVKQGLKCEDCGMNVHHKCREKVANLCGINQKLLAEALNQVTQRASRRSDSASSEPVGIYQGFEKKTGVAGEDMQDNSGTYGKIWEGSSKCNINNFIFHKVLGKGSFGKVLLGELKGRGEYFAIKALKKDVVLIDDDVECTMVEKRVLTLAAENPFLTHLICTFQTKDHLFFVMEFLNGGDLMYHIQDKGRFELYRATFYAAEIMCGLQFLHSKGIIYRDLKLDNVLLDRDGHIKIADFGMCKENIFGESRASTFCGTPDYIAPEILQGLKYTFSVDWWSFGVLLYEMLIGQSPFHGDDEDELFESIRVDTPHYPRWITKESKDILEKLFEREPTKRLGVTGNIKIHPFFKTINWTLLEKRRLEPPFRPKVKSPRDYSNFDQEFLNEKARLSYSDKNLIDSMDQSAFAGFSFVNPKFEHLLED
assay_remarks: Z'-Lyte recombinant enzyme assay, PKCδ
value_type: pIC50
One number for each entry, as −log10 of the molar value.

Missing value: pIC50, PKCδ (Homo sapiens, UniProt Q05655), entry Cc1ncc(F)c(Nc2n[nH]c3c2CN(C(=O)N2C[C@@H](C)N(CC4CCOCC4)C[C@@H]2C)C3(C)C)n1 [Cmpd 1] . Fill in?
5.81

* * *

experimental_target: PKCη (Homo sapiens, UniProt P24723)
Sequence (P24723 whole entry): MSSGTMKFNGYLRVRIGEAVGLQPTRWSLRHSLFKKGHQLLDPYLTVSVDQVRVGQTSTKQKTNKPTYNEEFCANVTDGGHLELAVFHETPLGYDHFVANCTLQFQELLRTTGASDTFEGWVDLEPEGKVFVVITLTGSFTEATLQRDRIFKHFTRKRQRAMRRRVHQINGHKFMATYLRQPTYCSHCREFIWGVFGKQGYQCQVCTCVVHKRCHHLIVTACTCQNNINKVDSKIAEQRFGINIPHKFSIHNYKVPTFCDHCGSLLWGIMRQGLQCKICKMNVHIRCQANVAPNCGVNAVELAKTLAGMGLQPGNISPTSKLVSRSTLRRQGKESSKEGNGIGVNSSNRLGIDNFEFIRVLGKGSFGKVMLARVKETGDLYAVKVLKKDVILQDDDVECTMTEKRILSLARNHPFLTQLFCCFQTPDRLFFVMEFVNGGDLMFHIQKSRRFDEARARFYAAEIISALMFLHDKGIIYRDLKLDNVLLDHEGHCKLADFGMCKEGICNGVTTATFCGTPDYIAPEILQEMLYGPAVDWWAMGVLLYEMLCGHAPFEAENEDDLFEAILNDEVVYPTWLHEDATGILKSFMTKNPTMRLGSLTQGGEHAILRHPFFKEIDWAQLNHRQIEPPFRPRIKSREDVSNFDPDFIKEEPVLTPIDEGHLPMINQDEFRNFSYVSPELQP
assay_remarks: Z'-Lyte recombinant enzyme assay, PKCη
value_type: pIC50
Give bare numbers, as −log10 of the molar value.

Look up pIC50: "Cc1ncc(F)c(Nc2n[nH]c3c2CN(C(=O)N2C[C@@H](C)N(CC4CCOCC4)C[C@@H]2C)C3(C)C)n1"
5.82
